Values were extracted from PubChem BioAssay (NCI).

tested on: OVCAR-8 ovarian; assay: NCI tumour cell line growth inhibition, 48 h; in the data active = GI50 below about 0.43 µM; inactive = the rest
Outcomes: TRUE (active), FALSE (inactive)

{"columns": ["molecule", "classification"],
 "data": [
  ["O=C(Nc1ccc2[nH]c(C(=O)N3CC(CCl)c4c3cc([N+](=O)[O-])c3ccccc43)cc2c1)c1cc2ccccc2o1 (configuration not stated)", "FALSE"],
  ["Cc1ccc(C(=O)/C(=C\\c2ccc([N+](=O)[O-])cc2)S(=O)Cc2ccc(F)cc2)cc1 (configuration not stated)", "FALSE"],
  ["O=C1NC(=O)C(c2ccc(Cl)cc2)=C1Nc1ccc(Cl)c(C(=O)O)c1", "FALSE"],
  ["COc1ccc2c(c1)CCc1[nH]nc(-c3cc(OC)c(OC)c(OC)c3)c1-2", "TRUE"],
  ["O=CC(Br)C(Br)c1ccccc1 (configuration not stated)", "FALSE"],
  ["Cc1cc([N+](=O)[O-])ccc1NS(=O)(=O)c1cc(Cl)ccc1Cl", "FALSE"],
  ["CSc1n(Cc2ccc3ccccc3c2)c(C)c[n+]1Cc1ccc2ccccc2c1", "TRUE"],
  ["Cn1c(/C=C(\\C#N)c2cccc(C(F)(F)F)c2)nc2c(N3CCOCC3)nc(Cl)nc21", "FALSE"],
  ["CN1C(=O)C(=Cc2cn(Cc3ccccc3)c3ccccc23)C(=O)N(C)C1=O", "FALSE"],
  ["CC1(C)CCC[C@]2(C)c3cc(O)ccc3CC[C@@H]12", "FALSE"],
  ["Nc1nc2ccc3[nH]ncc3c2c2c1CCCC2", "FALSE"],
  ["COc1cc(-c2csc(NC(=O)Nc3cc(C(F)(F)F)cc(C(F)(F)F)c3)n2)cc(OC)c1OC", "FALSE"]
]}

----------
Measured TGI accompanies every entry in the list below.
test system: NCI-H522 lung; assay: NCI tumour cell line growth inhibition, 48 h

{"columns": ["compound", "TGI"],
 "data": [
  ["CC(C)(C)c1cc(/C=C/C(=O)CC(=O)/C=C/c2cc(C(C)(C)C)c(O)c(C(C)(C)C)c2)cc(C(C)(C)C)c1O", "> 50 µM"],
  ["CC1C2CC(CC2N)C1(C)C (stereo not given)", "> 100 µM"],
  ["CN1CCN(C(=O)c2c(NC(=O)NS(=O)(=O)c3ccccc3)sc3c2CCCCC3)CC1", "98.6 µM"],
  ["c1ccc(Nn2c(CCCCCCCCc3nnc(COc4ccccc4)n3Nc3ccccc3)nnc2COc2ccccc2)cc1", "> 91.8 µM"],
  ["COP(=O)(OC)c1ccc(NCc2cc(O)ccc2O)cc1", "> 71.8 µM"],
  ["COc1cc(/C=C2\\N=C(C)N(n3c(-c4ccccc4)nc4ccccc4c3=O)C2=O)cc(OC)c1OC", "> 100 µM"],
  ["CC(C)N1CCC2(CC1)NNc1ncccc1-n1cccc12", "> 100 µM"],
  ["CCOC(=O)c1cc2c(cn1)[nH]c1cccc(N)c12", "> 100 µM"],
  ["NC(=O)c1ncn2c(=O)n(CCl)nnc12", "> 100 µM"],
  ["CC(=O)OC1CC[C@@]2(C)C(CC[C@]3(C)C2CC=C2[C@@H]4CC(C)(C)CCC4(C)CCC23C)[C@@]1(C)C(=O)O (stereo not given in full)", "22.6 µM"]
]}
